z-score listing for selected molecules.
PROTOCOL SUMMARY: basal RPMI8226 mitochondrial membrane potential changes, profiling panel, cell-based, JC-1 fluorescence, 24 h, 100 nL compound (AID 1169); also: test concentration not given here
CONDITION DESCRIPTION: RPMI8226 myeloma, JC-1 mitochondrial potential fluorescence, higher = more signal
OBSERVATION TYPE: z-score

[[record]]
molecule = "CC(=O)OC[C@H]1O[C@@H](ON=C2[C@H]3CCn4c(=O)n(-c5ccccc5)c(=O)n4[C@H]3[C@H](O)[C@@H]3O[C@H]23)[C@H](OC(C)=O)[C@@H](OC(C)=O)[C@@H]1OC(C)=O"
value_observed = -0.0535

[[record]]
molecule = "C#CCCCON=C1C[C@@H](O)[C@@H](O)[C@@H]2[C@@H]3C(=O)N(C4CCCCC4)C(=O)[C@@H]3CC[C@@H]12"
value_observed = -0.0811

[[record]]
molecule = "CC(C)CON=C1C[C@@H](O)[C@@H](O)[C@@H]2[C@@H]3C(=O)N(c4ccc(F)cc4F)C(=O)[C@@H]3CC[C@@H]12"
value_observed = -0.648

[[record]]
molecule = "COc1ccc2c(c1)O[C@@H](c1cccc(C(F)(F)F)c1)[C@H](O)C2=O"
value_observed = -0.239

[[record]]
molecule = "CCOC(=O)CCN1C(=O)[C@H]2[C@H]3[C@H](O)[C@H](O)CC(=NOCC(C)C)[C@@H]3CC[C@H]2C1=O"
value_observed = 0.562

[[record]]
molecule = "COc1ccc(COC(=O)NN=C2C[C@@H](O)[C@@H](O)[C@@H]3[C@@H]4C(=O)N(c5cccc(Oc6ccccc6)c5)C(=O)[C@@H]4CC[C@H]23)cc1"
value_observed = 0.197

[[record]]
molecule = "COc1ccc(COC(=O)NN=C2C[C@@H](O)[C@@H](O)[C@@H]3[C@@H]4C(=O)N(Cc5ccc6c(c5)OCO6)C(=O)[C@@H]4CC[C@H]23)cc1"
value_observed = 0.0307

[[record]]
molecule = "CCCNC(=O)OC[C@H]1O[C@H](CCON=C[C@@H](NS(=O)(=O)c2ccc(C)cc2)[C@H](C)C=CCC(=O)OC)C=C[C@@H]1Oc1ccc(OC)cc1"
value_observed = -0.806

[[record]]
molecule = "O=C(NN=C1C[C@@H](O)[C@@H](O)[C@@H]2[C@@H]3C(=O)N(c4ccc(F)cc4F)C(=O)[C@@H]3CC[C@H]12)OCc1ccccc1"
value_observed = 0.0563

[[record]]
molecule = "CCCCOC(OCCCC)C(O)CSc1ccc2ccccc2c1 (configuration not stated)"
value_observed = 0.591

[[record]]
molecule = "C[C@H]1CC[C@H]2C(=O)OC(COc3ccc(C(C)(C)C)cc3)CN2[C@@H]1c1ccc(Br)cc1 (some centres not stated)"
value_observed = 0.566

[[record]]
molecule = "COC(OC)[C@@H](C)[C@H](OC)[C@@H](C)[C@H](OC)c1ccccc1"
value_observed = 0.404

[[record]]
molecule = "C[C@@H](c1ccccc1)N1C(=O)[C@H]2[C@H]3[C@H](O)[C@H](O)CC(=NNC(=O)OCc4ccccc4)[C@@H]3CC[C@H]2C1=O"
value_observed = 0.102

[[record]]
molecule = "CC(=O)OC[C@H]1O[C@@H](ON=C(C)CCC(=O)OC[C@H]2O[C@H](C#Cc3ccccc3)C=C[C@@H]2Oc2ccc(C)cc2)[C@H](OC(C)=O)[C@@H](OC(C)=O)[C@@H]1OC(C)=O"
value_observed = 0.393

[[record]]
molecule = "C[C@H]1CC[C@H]2C(=O)N[C@H](Cc3ccccc3)C(=O)N2[C@@H]1c1ccccc1"
value_observed = 0.471

[[record]]
molecule = "COc1ccc(-c2cnnc(CCCn3ccnc3-c3ccccc3)n2)cc1"
value_observed = -0.87

[[record]]
molecule = "COC(=O)CC=C[C@@H](C)[C@@H](C=NOC[C@@H](O)[C@H]1O[C@@H]2OC(C)(C)O[C@@H]2[C@H]1O)OC"
value_observed = -0.199

[[record]]
molecule = "O=C1C=C[C@@H](O)[C@@H]2[C@@H]3C(=O)N(c4cccc(Oc5ccccc5)c4)C(=O)[C@@H]3CC[C@@H]12"
value_observed = -0.618

[[record]]
molecule = "CO[C@@H]1COC(=O)[C@H](CCSC)NC(=O)CC=C[C@@H](C)COC(=O)[C@@H]2CCCN2C(=O)CC=C[C@H]1C"
value_observed = -0.79

[[record]]
molecule = "COc1ccc(COC(=O)NN=C2C[C@@H](O)[C@@H](O)[C@@H]3[C@@H]4C(=O)N(C5CCCCC5)C(=O)[C@@H]4CC[C@@H]23)cc1"
value_observed = -0.375

[[record]]
molecule = "CC(=O)OC[C@H]1O[C@H](CC=NO[C@@H](C)c2cc(-c3c(C)cc(C)cc3C)no2)C=C[C@@H]1OC(C)=O"
value_observed = 0.774

[[record]]
molecule = "CON=C(C)CCC(=O)OC[C@H]1O[C@H](C#Cc2ccccc2)C=C[C@@H]1Oc1ccc(C)cc1"
value_observed = -0.5

[[record]]
molecule = "C[C@@H]1CC[C@H]2C(=O)OC(CN3C(=O)c4ccccc4C3=O)CN2[C@H]1c1ccc(Br)cc1 (some centres not stated)"
value_observed = -0.911

[[record]]
molecule = "CCOC(=O)[C@H](Cc1ccccc1)NC(=O)CCC1CC(OC(=O)NCCc2ccc(F)cc2)CC2(CCCC(COC(=O)NCCC(C)C)O2)O1 (some centres not stated)"
value_observed = -0.353

[[record]]
molecule = "CON(C)C(=O)c1nnc2c(n1)[nH]c1ccccc12"
value_observed = -0.886

[[record]]
molecule = "CCOC(=O)NN=C1C[C@@H](O)[C@@H](O)[C@@H]2[C@@H]3C(=O)N(CC)C(=O)[C@@H]3CC[C@H]12"
value_observed = -0.241

[[record]]
molecule = "CC1(C)O[C@H]2O[C@H]([C@H](O)CON=C3[C@H]4CCn5c(=O)n(-c6ccccc6)c(=O)n5[C@H]4[C@H](O)[C@@H]4O[C@H]34)[C@H](O)[C@H]2O1"
value_observed = 0.438

[[record]]
molecule = "CC(CCN1CCCc2nc(C)c(C)cc21)=NO[C@@H](C)c1cn([C@H](CO)Cc2ccccc2)nn1"
value_observed = -0.0733

[[record]]
molecule = "COC(=O)[C@H](C)NC(=O)CCC1CC(OC(=O)NCc2cccc3ccccc23)CC2(CCCC(COC(=O)NCCCN3CCCC3=O)O2)O1 (some centres not stated)"
value_observed = -0.344

[[record]]
molecule = "COC(=O)CC=C1c2ccccc2[C@H](OC)[C@H]1C"
value_observed = 0.539

[[record]]
molecule = "O=C1CCCC=C1C(O)C1CCCCC1 (configuration not stated)"
value_observed = -0.121

[[record]]
molecule = "CCN1C(=O)[C@H]2[C@H]3[C@H](O)[C@H](O)CC(=NO[C@@H]4O[C@H](CO)[C@@H](O)[C@H](O)[C@H]4O)[C@H]3CC[C@H]2C1=O"
value_observed = 0.0397


---

Below is a list of entries, each paired with its recorded composite z-score value.
PROTOCOL SUMMARY: compound binding in COS7 lysate, probe aLAP1, primary screen, cell lysate, small-molecule microarray (AID 1124);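 also: lysate comes from COS7 cells expressing LAP1 and is applied at 0.3 µg/mL; score merges spot fluorescence near 667 nm with signal-to-noise over triplicate slides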
CONDITION DESCRIPTION: probe aLAP1, fluorescence, higher = more signal
OBSERVATION TYPE: composite z-score

[[record]]
molecule = "COC(=O)CC=C[C@@H](C)[C@@H](C=NOC[C@@H](C)[C@H](OCc1ccccc1)C(C)C)OC"
value_observed = -0.61

[[record]]
molecule = "O=C1C=C[C@@H](O)[C@@H]2[C@@H]3C(=O)N(C4CCCCC4)C(=O)[C@@H]3CC[C@@H]12"
value_observed = 0.196

[[record]]
molecule = "C=CC[C@@H]1C=C[C@H](ON=C2C[C@@H](O)[C@@H](O)[C@@H]3[C@@H]4C(=O)N(CC)C(=O)[C@@H]4CC[C@@H]23)[C@@H](CO)O1"
value_observed = -0.289

[[record]]
molecule = "CC(C)[C@@H](OCc1ccccc1)[C@H](C)C=NOC[C@@H](O)[C@H]1O[C@@H]2OC(C)(C)O[C@@H]2[C@H]1O"
value_observed = 0.614

[[record]]
molecule = "COC(=O)[C@@H]1CC[C@H](C)[C@@H](c2ccc(C)cc2)N1C(=O)c1ccc(C=NOC[C@H]2O[C@H](c3ccccc3)C=C[C@@H]2Oc2ccc(OC)cc2)cc1"
value_observed = -0.192

[[record]]
molecule = "O=C1[C@H]2CCn3c(=O)n(-c4ccccc4)c(=O)n3[C@H]2[C@H](O)[C@@H]2O[C@H]12"
value_observed = -0.34

[[record]]
molecule = "COc1ccc(COC(=O)NN=C2C[C@@H](O)[C@@H](O)[C@@H]3[C@@H]4C(=O)N(c5cccc(Oc6ccccc6)c5)C(=O)[C@@H]4CC[C@H]23)cc1"
value_observed = -0.0241

[[record]]
molecule = "CCOC(=O)CCN1C(=O)[C@H]2[C@H]3[C@H](O)[C@H](O)CC(=NOCC=C(C)CCC=C(C)C)[C@@H]3CC[C@H]2C1=O"
value_observed = 0.0278

[[record]]
molecule = "CO[C@H]1COC(=O)[C@H](CCSC)NC(=O)CC=C[C@@H](C)[C@H](OC)COC(=O)[C@@H](OCc2ccccc2)C=C[C@@H]1C"
value_observed = 0.0916

[[record]]
molecule = "CCN1C(=O)[C@H]2[C@H]3[C@H](O)[C@H](O)CC(=NOCC(C)C)[C@H]3CC[C@H]2C1=O"
value_observed = 0.0041

[[record]]
molecule = "COC(=O)[C@H](CCSC)NC(=O)CC=C[C@@H](C)CO"
value_observed = -0.226

[[record]]
molecule = "O=C1CCCC=C1C(O)c1ccc([N+](=O)[O-])cc1 (stereo not given)"
value_observed = 0.0252

[[record]]
molecule = "C[C@@H]1CC[C@H]2C(=O)OC(Cc3ccccc3)CN2[C@H]1c1ccc(Br)cc1 (stereo not given in full)"
value_observed = 0.509

[[record]]
molecule = "CC(=O)OC[C@H]1O[C@@H](ON=C(C)C)[C@H](OC(C)=O)[C@@H](OC(C)=O)[C@@H]1OC(C)=O"
value_observed = 0.694

[[record]]
molecule = "COC(=O)CC=C[C@@H](C)[C@@H](C=NOC[C@@H](C)[C@H](OCc1ccccc1)C(C)C)NS(=O)(=O)c1ccc(C)cc1"
value_observed = 0.102

